biological target: Putative heat shock protein HSP 90-beta 2 (Homo sapiens, UniProt Q58FF8); note: in the data inactive means no Kd found up to 30 µM
Sequence (Q58FF8 whole entry): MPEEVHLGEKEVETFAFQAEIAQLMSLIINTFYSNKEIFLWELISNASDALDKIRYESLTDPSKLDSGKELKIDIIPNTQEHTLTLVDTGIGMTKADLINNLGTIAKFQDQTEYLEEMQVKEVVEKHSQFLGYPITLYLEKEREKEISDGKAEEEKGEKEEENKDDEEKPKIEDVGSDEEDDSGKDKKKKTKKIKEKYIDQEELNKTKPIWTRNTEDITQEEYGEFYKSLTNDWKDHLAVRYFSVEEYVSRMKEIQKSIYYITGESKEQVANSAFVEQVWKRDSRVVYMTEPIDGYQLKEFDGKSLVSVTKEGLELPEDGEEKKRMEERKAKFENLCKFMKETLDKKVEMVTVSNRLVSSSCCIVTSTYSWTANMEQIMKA
The source made the active and inactive calls.
reported property: Kd

structure_smiles=O=C(c1ccc(F)c(F)c1Nc1ccc(I)cc1F)N1CC(O)([C@@H]2CCCCN2)C1 readout_value="> 30 µM (inactive)"
structure_smiles=Cc1cn(-c2cc(NC(=O)c3ccc(C)c(Nc4nccc(-c5cccnc5)n4)c3)cc(C(F)(F)F)c2)cn1 readout_value="> 30 µM (inactive)"
structure_smiles=CCCS(=O)(=O)Nc1ccc(F)c(C(=O)c2c[nH]c3ncc(-c4ccc(Cl)cc4)cc23)c1F readout_value="> 30 µM (inactive)"
structure_smiles=CO[C@H]1C[C@@H]2CC[C@@H](C)[C@@](O)(O2)C(=O)C(=O)N2CCCC[C@H]2C(=O)O[C@H]([C@H](C)C[C@@H]2CC[C@@H](OCCO)[C@H](OC)C2)CC(=O)[C@H](C)/C=C(\C)[C@@H](O)[C@@H](OC)C(=O)[C@H](C)C[C@H](C)/C=C/C=C/C=C/1C readout_value="> 30 µM (inactive)"
structure_smiles=CNC(=O)c1ccc(C)c(-n2c(C)cc(OCc3ccc(F)cc3F)c(Br)c2=O)c1 readout_value="> 30 µM (inactive)"

Next item in the queue.
Consider the compound shown here: Cc1c(F)cc(C(=O)NC2CC2)cc1-c1ccc(C(=O)NCC(C)(C)C)cn1 What is its recorded Kd?
> 30 µM (inactive)
